Data provenance: patent US20260356830A1

# assay-target: CCDC6-RET (Homo sapiens, UniProt P07949+Q16204+Q96SW2)
# Construct: CCDC6 (natural N-terminal fusion partner, UniProt Q16204); endogenous in cells; host or cells: TPC-1 (parental, papillary thyroid carcinoma)
# Sequence (Q16204+P07949 fused): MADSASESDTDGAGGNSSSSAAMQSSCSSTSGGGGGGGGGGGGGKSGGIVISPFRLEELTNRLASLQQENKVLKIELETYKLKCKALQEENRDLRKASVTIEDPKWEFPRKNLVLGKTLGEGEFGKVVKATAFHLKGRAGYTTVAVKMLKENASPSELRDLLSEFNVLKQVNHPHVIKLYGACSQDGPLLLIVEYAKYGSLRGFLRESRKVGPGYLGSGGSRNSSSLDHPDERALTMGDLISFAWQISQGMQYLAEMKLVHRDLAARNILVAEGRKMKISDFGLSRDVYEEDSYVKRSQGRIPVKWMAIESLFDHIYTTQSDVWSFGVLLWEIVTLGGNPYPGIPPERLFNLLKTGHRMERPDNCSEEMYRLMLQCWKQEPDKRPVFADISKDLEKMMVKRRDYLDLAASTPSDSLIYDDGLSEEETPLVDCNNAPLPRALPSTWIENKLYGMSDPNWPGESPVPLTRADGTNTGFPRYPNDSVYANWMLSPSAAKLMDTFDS
# Sequence (Q96SW2 whole entry, the tested form may be a part): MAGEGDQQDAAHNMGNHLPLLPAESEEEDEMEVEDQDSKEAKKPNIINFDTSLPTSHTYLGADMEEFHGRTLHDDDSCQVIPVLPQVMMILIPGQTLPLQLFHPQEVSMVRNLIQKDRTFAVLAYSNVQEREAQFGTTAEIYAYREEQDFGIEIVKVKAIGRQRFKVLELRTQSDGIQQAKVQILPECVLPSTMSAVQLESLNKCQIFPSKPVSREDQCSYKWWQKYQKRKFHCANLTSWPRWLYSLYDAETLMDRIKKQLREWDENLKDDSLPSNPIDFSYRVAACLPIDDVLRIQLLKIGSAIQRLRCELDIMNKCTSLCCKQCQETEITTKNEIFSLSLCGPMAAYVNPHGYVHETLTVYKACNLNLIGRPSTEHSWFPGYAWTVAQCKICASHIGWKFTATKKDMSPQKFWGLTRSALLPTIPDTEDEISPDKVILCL
# Sequence (Q16531 whole entry partner, the tested form may be a part): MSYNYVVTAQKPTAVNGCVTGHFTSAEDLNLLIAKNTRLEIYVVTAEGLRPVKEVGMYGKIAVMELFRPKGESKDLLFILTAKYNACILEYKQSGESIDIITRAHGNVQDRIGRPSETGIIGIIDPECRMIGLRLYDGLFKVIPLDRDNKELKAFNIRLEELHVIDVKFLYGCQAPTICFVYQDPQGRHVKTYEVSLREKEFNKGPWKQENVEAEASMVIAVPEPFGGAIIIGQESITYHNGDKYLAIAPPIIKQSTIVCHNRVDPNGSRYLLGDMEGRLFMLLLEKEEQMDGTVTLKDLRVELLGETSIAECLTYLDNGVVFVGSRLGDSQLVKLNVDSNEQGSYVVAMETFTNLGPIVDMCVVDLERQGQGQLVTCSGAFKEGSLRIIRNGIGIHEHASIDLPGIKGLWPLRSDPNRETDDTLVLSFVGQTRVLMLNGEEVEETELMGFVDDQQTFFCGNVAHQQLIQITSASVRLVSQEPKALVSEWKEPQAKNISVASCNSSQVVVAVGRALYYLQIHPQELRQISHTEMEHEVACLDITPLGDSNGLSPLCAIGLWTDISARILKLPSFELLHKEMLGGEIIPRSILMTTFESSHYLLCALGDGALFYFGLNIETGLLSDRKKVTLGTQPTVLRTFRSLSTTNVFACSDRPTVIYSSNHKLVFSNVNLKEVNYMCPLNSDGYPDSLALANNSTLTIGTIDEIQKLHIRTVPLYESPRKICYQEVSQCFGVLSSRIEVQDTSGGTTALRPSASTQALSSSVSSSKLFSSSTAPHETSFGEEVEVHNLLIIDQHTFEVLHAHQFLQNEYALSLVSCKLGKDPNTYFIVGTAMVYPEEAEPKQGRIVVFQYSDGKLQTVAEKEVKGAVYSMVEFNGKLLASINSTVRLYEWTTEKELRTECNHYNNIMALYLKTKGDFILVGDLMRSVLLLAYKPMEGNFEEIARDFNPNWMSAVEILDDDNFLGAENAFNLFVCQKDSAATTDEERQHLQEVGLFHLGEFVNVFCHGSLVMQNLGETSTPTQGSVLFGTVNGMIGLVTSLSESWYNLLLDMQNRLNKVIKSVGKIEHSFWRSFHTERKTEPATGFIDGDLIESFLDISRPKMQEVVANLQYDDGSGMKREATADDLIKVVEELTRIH
# method: Cellular RET degradation, AlphaLISA, TPC-1 cell line
# Type: cell-based
# stated-conditions: TPC1, human, 24 h, read-out: Cell Density TPC-1/CCDC6-RET Ymax %
endpoint: Dmax

- CCOc1cc(-c2ccc(N3CCC(CN4CCN(CCOCCOCCC(=O)N5CCN(c6ccc7c(c6)CN(C6CCC(=O)NC6=O)C7=O)CC5)CC4)(NC(=O)c4cc(F)ccc4F)CC3)nc2)c2c(C#N)cnn2c1 (centres unmarked): 60 to 90%

Enquiry: Given the entry CCOc1cc(-c2ccc(N3CCC(COCC(=O)NCCCCN4CCN(c5ccc6c(c5)CN(C5CCC(=O)NC5=O)C6=O)CC4)(NC(=O)c4cc(F)ccc4F)CC3)nc2)c2c(C#N)cnn2c1 (centres unmarked) , report its measured Dmax.
Return: 60 to 90%

Enquiry: Given the entry CCOc1cc(-c2ccc(N3CCC(CN(C)C(=O)CCCCCCN4CCC(c5ccc6c(c5)C(=O)N(C5CCC(=O)NC5=O)C6)CC4)(NC(=O)c4cc(F)ccc4F)CC3)nc2)c2c(C#N)cnn2c1 (centres unmarked) , report its measured Dmax.
Return: > 90%

Enquiry: Given the entry CCOc1cc(-c2ccc(N3CCC(CN(C(=O)CCCCN4CCN(c5ccc6c(c5)C(=O)N(C5CCC(=O)NC5=O)C6)CC4)C(C)C)(NC(=O)c4cc(F)ccc4F)CC3)nc2)c2c(C#N)cnn2c1 (centres unmarked) , report its measured Dmax.
Return: > 90%

Enquiry: Given the entry CCOc1cc(-c2ccc(N3CCC(Cc4ccccc4)(NC(=O)CC4CCN(C(=O)CCN5CCC(c6ccc7c(c6)C(=O)N(C6CCC(=O)NC6=O)C7)CC5)CC4)CC3)nc2)c2c(C#N)cnn2c1 (centres unmarked) , report its measured Dmax.
Return: 60 to 90%

====

# assay-target: CCDC6-RET (Homo sapiens, UniProt P07949+Q16204+Q96SW2)
# Construct: CCDC6 (natural N-terminal fusion partner, UniProt Q16204); endogenous in cells; host or cells: TPC-1 (parental, papillary thyroid carcinoma)
# method: Cellular RET degradation, AlphaLISA, TPC-1 cell line
# Assay type: cell-based
# stated-conditions: TPC1, human, 24 h, read-out: Cell Density TPC-1/CCDC6-RET Ymax %
endpoint: Dmax

Recorded Dmax, per entry:
* CCOc1cc(-c2ccc(N3CCC(CN4CCN(C(=O)CCCCCCCCNc5ccc(C6CCC(=O)NC6=O)cc5)CC4)(NC(=O)c4cc(F)ccc4F)CC3)nc2)c2c(C#N)cnn2c1 (stereo not shown) | 60 to 90%
* CCOc1cc(-c2ccc(N3CCC(CN4CCN(C5CC6(CC(C(=O)N7CCC(c8ccc9c(c8)CN(C8CCC(=O)NC8=O)C9=O)CC7)C6)C5)CC4)(NC(=O)c4cc(F)ccc4F)CC3)nc2)c2c(C#N)cnn2c1 (stereo not shown) | 60 to 90%
* CCOc1cc(-c2ccc(N3CCC(CN(C(=O)CCCCN4CCC(c5ccc6c(c5)C(=O)N(C5CCC(=O)NC5=O)C6)CC4)C(C)C)(NC(=O)c4cc(F)ccc4F)CC3)nc2)c2c(C#N)cnn2c1 (stereo not shown) | 60 to 90%
* CCOc1cc(-c2ccc(N3CCC(CN4CCN(CCC(=O)N5CCC(c6ccc7c(c6)C(=O)N(C6CCC(=O)NC6=O)C7=O)CC5)CC4)(NC(=O)c4cc(F)ccc4F)CC3)nc2)c2c(C#N)cnn2c1 (stereo not shown) | > 90%
* CCOc1cc(-c2ccc(N3CCC(CN4CC5(C4)CN(C(=O)CCN4CCC(c6ccc7c(c6)CN(C6CCC(=O)NC6=O)C7=O)CC4)C5)(NC(=O)c4cc(F)ccc4F)CC3)nc2)c2c(C#N)cnn2c1 (stereo not shown) | > 90%
* CCOc1cc(-c2ccc(N3CCC(CN(C(=O)CCCCN4CCN(c5ccc6c(c5)CN(C5CCC(=O)NC5=O)C6=O)CC4)C(C)C)(NC(=O)c4cc(F)ccc4F)CC3)nc2)c2c(C#N)cnn2c1 (stereo not shown) | > 90%
* CCOc1cc(-c2ccc(N3CCC(COCCN4CCN(C(=O)CCN5CCN(c6ccc7c(c6)C(=O)N(C6CCC(=O)NC6=O)C7)CC5)CC4)(NC(=O)c4cc(F)ccc4F)CC3)nc2)c2c(C#N)cnn2c1 (stereo not shown) | 60 to 90%
* CCOc1cc(-c2ccc(N3CCC(Cc4ccccc4)(NC(=O)C4CCN(C(=O)CCN5CCC(c6ccc7c(c6)C(=O)N(C6CCC(=O)NC6=O)C7)CC5)CC4)CC3)nc2)c2c(C#N)cnn2c1 (stereo not shown) | > 90%

Enquiry: Given the entry CCOc1cc(-c2ccc(N3CCC(CN4CCN(C(=O)CCN5CCC(c6ccc7c(c6)C(=O)N(C6CCC(=O)NC6=O)C7)CC5)CC4)(NC(=O)C4CC4)CC3)nc2)c2c(C#N)cnn2c1 (stereo not shown) , report its measured Dmax.
Return: > 90%

Enquiry: Given the entry CCOc1cc(-c2ccc(N3CCC(CN4CCN(C(=O)CCCCN5CCC(c6ccc7c(c6)C(=O)N(C6CCC(=O)NC6=O)C7)CC5)CC4)(NC(=O)c4cc(F)ccc4F)CC3)nc2)c2c(C#N)cnn2c1 (stereo not shown) , report its measured Dmax.
Return: > 90%
